T/C listing for selected compounds.
# System: BDF1 mice, Adenocarcinoma 755 s.c., tumor weight T/C
# test method notes: NCI In Vivo Anticancer Drug Screen. Data for tumor model Adenocarcinoma 755 (subcutaneous) in B6D2F1 (BDF1) mice
# settings: endpoint: mean tumor weight; dose: 12.5 mg/kg/injection; schedule: Q01DX011 (ip); vehicle: carboxymethylcellulose (CMC); higher = larger tumour

Worked examples, 5 compounds total:
[in] Consider the compound `CCCn1cnc2c(=S)nc[nH]c21` . State its measured T/C.
[out] 5 % of control

[in] Consider the compound Nc1nc(=S)c2ncn(C3OC(COC(=O)c4ccc([N+](=O)[O-])cc4)C(OC(=O)c4ccc([N+](=O)[O-])cc4)C3OC(=O)c3ccc([N+](=O)[O-])cc3)c2[nH]1 (stereo unspecified) . State its measured T/C.
[out] 34 % of control

[in] Consider the compound `C=CC(=O)NCNC(=O)CCBr` . State its measured T/C.
[out] 62 % of control

[in] Consider the compound `CC(=O)Nc1c(Cl)cc2c(c1Cl)Cc1cc([N+](=O)[O-])ccc1-2` . State its measured T/C.
[out] 15 % of control

[in] Consider the compound `N#[N+]c1n[nH]nc1C(N)=O` . State its measured T/C.
[out] 63 % of control

New cases:
[in] Consider the compound `CN(C)c1nc(N)nc(Nc2ccc(Br)cc2)c1N=O` . State its measured T/C.
[out] 40 % of control

[in] Consider the compound `CC(C)n1cnc2c(=S)nc[nH]c21` . State its measured T/C.
[out] 3 % of control

Just for reference, PubChem BioAssay AID180 is where these values come from.
